experiment: lowers stimulated NF-kB reporter luminescence – cell-based, uHTS, TCR NF-kB activation inhibitor project, primary screen (AID 435003); details: at 4 µM; NF-kB luciferase reporter unless noted
The campaign covered roughly 330,000 compounds. About 1,700 (0.52%) were called active. Rule as the data show it: active = inhibition above about 50%; inactive = the rest. Many of the other results were omitted from the sample, so actives are more common in it than they were.
Write down one outcome, taken from yes = active, no = inactive

Check out these entries, answers already filled in.
{"columns": ["compound", "answer_label"],
 "data": [
  ["c1ccc(C2NCc3ccccc3-n3cccc32)cc1 (stereo unspecified)", "no"],
  ["CCCCCCCCCCCCn1ccc(=N)cc1", "yes"],
  ["C[C@]12CCC3C(CC[C@H]4C[C@@H](O)CC[C@]34C)C1CC[C@@H]2O (stereo partly specified)", "no"],
  ["CCN(CC)P(=O)(Oc1cccc(C)c1)N(CC)CC", "no"],
  ["Cc1nn(Cc2ccccc2Cl)c(Cl)c1C(=O)OC(C(=O)NC(N)=O)C(C)C (stereo unspecified)", "no"]
]}

Q. Which outcome was entered for the compound CCOC(=O)C1(Cc2ccc(Cl)cc2)CCN(C(C)CCn2cccn2)CC1 (stereo unspecified) in this test?
A. no

Q. Recorded call for CN1CCc2cc3c(cc2[C@H]1[C@@H]1OC(=O)c2c1ccc1c2OCO1)OCO3 ?
A. no

Q. Could you kindly confirm the outcome this assay logged for O=C(NCC(c1cccnc1)N1CCN(c2ccccc2)CC1)Oc1ccccc1 (stereo unspecified) ?
A. no

Q. Hi, do you know how Cc1cc2ccccn2c1C(C[N+](=O)[O-])c1c(F)cccc1Cl (stereo unspecified) came out in this test?
A. yes

Q. Query: recorded result category for Cc1cc(N2C(=O)C3CCCN3C2c2ccc(Cl)c(Cl)c2)no1 (stereo unspecified) in this test
A. no

Q. Identify the outcome logged in this assay for the compound shown: CN1CCN(/N=C/c2c[nH]c3ccccc23)CC1
A. no
